# Tested on: chloroquine-sensitive (CQS) strain of P. falciparum (D10)
# assay_info: in vitro antiplasmodial activity, chloroquine-sensitive strain D10
# Assay type: cell-based, Plasmodium falciparum
# condition_info: read-out: D10: IC50; CQS strain D10; tested in triplicate on one occasion; hydrophobic samples added as suspension
Quick reference for IC50 among some compounds
Give your result in µM as a bare value.

• COc1ccc(CN2CC2Cn2cc(-c3ccccc3)nn2)cc1 (centres unmarked) [Compound 15c] = 25.7

Then there is this compound:
[in] Identify measured IC50 corresponding to Cc1ccc(-c2cn(CC3CN3Cc3ccccc3)nn2)cc1 (centres unmarked) [Compound 15d]
[out] 20.4

====

# Tested on: chloroquine-resistant (CQR) strain of P. falciparum (Dd2)
# assay_info: in vitro antiplasmodial activity, chloroquine-resistant strain Dd2
# Format: cell-based, Plasmodium falciparum
# condition_info: Plasmodium falciparum; CQR strain Dd2; tested in triplicate on one occasion; read-out: Dd2: IC50
Quick reference for pIC50 among some molecules
Friendly reminder that pIC50 comes from taking -log10 of the concentration in mol/L.

* CN(C)CC(Cn1cc(-c2ccccc2)nn1)NCc1ccccc1Cl (centres unmarked) [Compound 16f] | 4.89

[in] Identify measured pIC50 corresponding to CCN(CC)CC(Cn1cc(-c2ccccc2)nn1)NCc1ccccc1 (centres unmarked) [Compound 16a]
[out] 3.64

====

# System: chloroquine-resistant (CQR) strain of P. falciparum (Dd2)
# assay_info: in vitro antiplasmodial activity, chloroquine-resistant strain Dd2
# Assay type: cell-based, Plasmodium falciparum
# condition_info: ratio Dd2/D10
measured_metric: RI (Resistance Index) = IC50 Dd2/IC50 D10
I'd appreciate a reply containing only the number, no unit.

Some solved cases for reference:
• CCN(CC)CCCC(C)Nc1ccnc2cc(Cl)ccc12 (stereo not shown) [CQ, reference compound] = 3.9
• OCC(Cc1ccc(Cl)cc1)NCc1ccccc1 (stereo not shown) [Compound 6a] = 0.9
• COc1ccc(CN2CC2Cn2cc(-c3ccccc3)nn2)cc1 (stereo not shown) [Compound 15c] = 2.2

[in] Identify measured RI (Resistance Index) = IC50 Dd2/IC50 D10 corresponding to Cc1ccc(-c2cn(CC3CN3Cc3ccccc3)nn2)cc1 (stereo not shown) [Compound 15d]
[out] 1
